Provenance of the data: ChEMBL document CHEMBL1135728

- assay_system: UniProtKB P09619
- Sequence (P09619 whole entry, the tested form may be a part): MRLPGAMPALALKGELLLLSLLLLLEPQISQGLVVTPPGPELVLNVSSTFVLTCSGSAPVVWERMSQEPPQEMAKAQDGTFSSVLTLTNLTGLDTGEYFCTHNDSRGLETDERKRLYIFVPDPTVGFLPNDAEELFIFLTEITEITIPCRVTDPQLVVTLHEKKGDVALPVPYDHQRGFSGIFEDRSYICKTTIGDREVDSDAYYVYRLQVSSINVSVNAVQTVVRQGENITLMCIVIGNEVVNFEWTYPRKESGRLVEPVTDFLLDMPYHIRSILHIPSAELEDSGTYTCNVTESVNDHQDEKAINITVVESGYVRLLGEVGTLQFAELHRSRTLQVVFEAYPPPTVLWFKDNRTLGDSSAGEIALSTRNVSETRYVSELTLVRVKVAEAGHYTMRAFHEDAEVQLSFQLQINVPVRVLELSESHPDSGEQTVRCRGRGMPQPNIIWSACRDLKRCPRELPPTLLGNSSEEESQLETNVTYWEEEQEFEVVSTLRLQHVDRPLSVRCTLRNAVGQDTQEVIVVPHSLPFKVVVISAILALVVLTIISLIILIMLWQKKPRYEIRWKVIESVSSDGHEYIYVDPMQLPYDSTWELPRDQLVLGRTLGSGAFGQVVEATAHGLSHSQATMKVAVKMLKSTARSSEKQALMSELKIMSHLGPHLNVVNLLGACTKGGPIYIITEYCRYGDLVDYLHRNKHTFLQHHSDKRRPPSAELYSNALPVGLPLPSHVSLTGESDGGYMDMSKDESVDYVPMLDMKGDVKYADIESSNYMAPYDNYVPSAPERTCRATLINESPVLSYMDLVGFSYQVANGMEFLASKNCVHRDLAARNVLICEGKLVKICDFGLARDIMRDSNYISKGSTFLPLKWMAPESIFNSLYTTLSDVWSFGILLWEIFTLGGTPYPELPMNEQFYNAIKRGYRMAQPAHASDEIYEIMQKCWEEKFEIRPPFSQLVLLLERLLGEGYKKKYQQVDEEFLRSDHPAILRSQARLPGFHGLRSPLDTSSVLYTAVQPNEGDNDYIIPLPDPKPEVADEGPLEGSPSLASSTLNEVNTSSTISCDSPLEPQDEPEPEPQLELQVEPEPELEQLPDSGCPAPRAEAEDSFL
- test_details: Inhibition of Platelet-derived growth factor receptor beta kinase activity in Sf9-expressed GST-fusion protein
assay_metric: pIC50
Give bare numbers, as −log10 of the molar value.

Some compounds with known pIC50 results, for comparison:
                                smiles_text  assay_metric  value_observed
0  CN(C)CC(=O)Oc1ccc2[nH]c(C(=O)c3cc4ccccc4[nH]3)cc2c1         pIC50            5.89
1  O=C(c1cc2ccccc2[nH]1)c1cc2cc(O)ccc2[nH]1         pIC50            6.22
2  COCC(=O)Oc1ccc2[nH]c(C(=O)c3cc4ccccc4[nH]3)cc2c1         pIC50            5.38

Then there is this compound:
query: What pIC50 value was documented for this compound, CC(=O)Oc1ccc2[nH]c(C(=O)c3cc4ccccc4[nH]3)cc2c1 ?
result: 7.15

###

- assay_system: Platelet-derived growth factor receptor (Homo sapiens, UniProt P09619+P16234)
- test_details: Antitumor activity measured by the inhibition of platelet-derived growth factor receptor autophosphorylation in intact Swiss 3T3 cells
assay_metric: pIC50
Answers are plain numbers, as −log10 of the molar value.

>>> print(df.to_string())
                                smiles_text  value_observed
0  CCC(=O)Oc1ccc2[nH]c(C(=O)c3cc4ccccc4[nH]3)cc2c1            6.05
1  O=C(Oc1ccc2[nH]c(C(=O)c3cc4ccccc4[nH]3)cc2c1)c1cccnc1            6.00

Batch request: pIC50 per item, same order as input.
1. O=C(Cc1cccs1)Oc1ccc2[nH]c(C(=O)c3cc4ccccc4[nH]3)cc2c1
2. CC(=O)Oc1ccc2[nH]c(C(=O)c3cc4ccccc4[nH]3)cc2c1

result:
6.10
6.52

###

- assay_system: Platelet-derived growth factor receptor (Homo sapiens, UniProt P09619+P16234)
- test_details: Antitumor activity measured by the inhibition of platelet-derived growth factor receptor autophosphorylation in intact Swiss 3T3 cells
assay_metric: pIC50
One number for each entry, as −log10 of the molar value.

                                smiles_text                              assay_system  value_observed
0  O=C(Oc1ccc2[nH]c(C(=O)c3cc4ccccc4[nH]3)cc2c1)c1ccc(-c2ccccc2)cc1  Platelet-derived growth factor receptor (Homo sapiens, UniProt P09619+P16234)            5.77

Each compound below has a reported value. Please supply its pIC50.
1. CCOc1ccc2[nH]c(C(=O)c3cc4ccccc4[nH]3)cc2c1
2. O=C(/C=C/c1ccccc1)Oc1ccc2[nH]c(C(=O)c3cc4ccccc4[nH]3)cc2c1
3. CCCC(=O)Oc1ccc2[nH]c(C(=O)c3cc4ccccc4[nH]3)cc2c1

result:
1. 5.64
2. 5.47
3. 5.96
